# ASSAY TARGET: iNOS (Homo sapiens, UniProt P35228)
# ASSAY OVERVIEW: NOS activity: L-[3H]citrulline formation from L-[3H]arginine, iNOS
# Assay type: biochemical
# TEST SETTINGS: Table 2; iNOS; 1 μM L-Arg, pH 7.5, room temperature, 30 minutes; read-out: iNOS (IC50)
Counter-ions that a name gives are not always drawn.
REPORTED ENDPOINT: IC50

For orientation, consider the following solved cases.
{"COMPOUND": "Cc1cc(N)nc(CCCCC(=O)O)c1 [Example 74, hydrochloride]", "ASSAY TARGET": "iNOS (Homo sapiens, UniProt P35228)", "IC50": "< 10 µM"}
{"COMPOUND": "COc1ccnc(N)c1 [Example 34, 4-Methoxy-2-aminopyridine]", "ASSAY TARGET": "iNOS (Homo sapiens, UniProt P35228)", "IC50": "< 10 µM"}
{"COMPOUND": "COc1cccnc1N [Example 20, 2-Amino-3-methoxypyridine]", "ASSAY TARGET": "iNOS (Homo sapiens, UniProt P35228)", "IC50": "> 50 µM"}
{"COMPOUND": "Cc1cnc(N)c(C)c1 [Example 50, 2-Amino-3,5-dimethylpyridine]", "ASSAY TARGET": "iNOS (Homo sapiens, UniProt P35228)", "IC50": "< 50 µM"}
{"COMPOUND": "Cc1cc(N)nc(CCCCN)c1 [Example 56]", "ASSAY TARGET": "iNOS (Homo sapiens, UniProt P35228)", "IC50": "< 1 µM"}
{"COMPOUND": "C=Cc1c(C)cc(N)nc1C [Example 37, 4,6-Dimethyl-5-ethenyl-2-aminopyridine]", "ASSAY TARGET": "iNOS (Homo sapiens, UniProt P35228)", "IC50": "< 10 µM"}
{"COMPOUND": "Cc1cc(N)ncc1-c1ccccc1 [Example 40, 2-Amino-4-methyl-5-phenylpyridine]", "ASSAY TARGET": "iNOS (Homo sapiens, UniProt P35228)", "IC50": "> 50 µM"}
{"COMPOUND": "Cc1ccnc(N)c1Cl [Example 28, 2-Amino-3-chloro-4-picoline]", "ASSAY TARGET": "iNOS (Homo sapiens, UniProt P35228)", "IC50": "< 1 µM"}

// for each compound in input: emit IC50
1. Cc1cc(N)ncc1Cl [Example 29, 2-Amino-5-chloro-4-picoline]
2. CCCc1c(C)ccnc1N [Example 26, dihydrochloride]
3. CSc1ccnc(N)c1 [Example 35, 4-Methylthio-2-aminopyridine]

["< 10 µM", "< 50 µM", "< 50 µM"]

---

# ASSAY TARGET: iNOS (Homo sapiens, UniProt P35228)
# ASSAY OVERVIEW: NOS activity: L-[3H]citrulline formation from L-[3H]arginine, iNOS
# Assay type: biochemical
# TEST SETTINGS: Table 2; iNOS; 1 μM L-Arg, pH 7.5, room temperature, 30 minutes; read-out: iNOS (IC50)
Structures can show the parent of a compound that is named as a salt.
REPORTED ENDPOINT: IC50

For orientation, consider the following solved cases.
{"MOLECULE": "Cc1cc(N)nc(CCCCc2ccccc2)c1", "REPORTED ENDPOINT": "IC50", "RESULT VALUE": "< 10 µM"}
{"MOLECULE": "Cc1ccnc(N)c1NC(=O)NCc1ccccc1", "REPORTED ENDPOINT": "IC50", "RESULT VALUE": "< 10 µM"}
{"MOLECULE": "Cc1cc(N)nc(CCCC(=O)O)c1 [Example 75, hydrochloride]", "REPORTED ENDPOINT": "IC50", "RESULT VALUE": "< 10 µM"}
{"MOLECULE": "Nc1ccc(-c2ccccc2)cn1", "REPORTED ENDPOINT": "IC50", "RESULT VALUE": "> 50 µM"}

// for each molecule in input: emit IC50
1. Cc1cc(N)nc(CCCN)c1
2. Cc1ccc(N)nc1C
3. Cc1cc(N)nc(CCO)c1
4. Nc1cc2c(cn1)CCCC2 [Example 64, 3-Amino-5,6,7,8-tetrahydroisoquinoline]
5. Cc1cc(N)nc(CC(C)C)c1
6. Cc1cc(N)nc2c1CCCC2

< 1 µM
< 10 µM
< 1 µM
< 10 µM
< 1 µM
< 10 µM

---

# ASSAY TARGET: iNOS (Homo sapiens)
# ASSAY OVERVIEW: NOS activity: L-[3H]citrulline formation from L-[3H]arginine, iNOS
# Format: biochemical
REPORTED ENDPOINT: IC50

Specify reported IC50 for the compound shown: Cc1cc(N)ncc1N [Example 30, 2.5-Diamino-4-picoline]
< 10 µM

---

Provide the recorded IC50 for the entries that follow.
# ASSAY TARGET: ncNOS (Homo sapiens, UniProt P29475)
# Sequence (P29475 whole entry): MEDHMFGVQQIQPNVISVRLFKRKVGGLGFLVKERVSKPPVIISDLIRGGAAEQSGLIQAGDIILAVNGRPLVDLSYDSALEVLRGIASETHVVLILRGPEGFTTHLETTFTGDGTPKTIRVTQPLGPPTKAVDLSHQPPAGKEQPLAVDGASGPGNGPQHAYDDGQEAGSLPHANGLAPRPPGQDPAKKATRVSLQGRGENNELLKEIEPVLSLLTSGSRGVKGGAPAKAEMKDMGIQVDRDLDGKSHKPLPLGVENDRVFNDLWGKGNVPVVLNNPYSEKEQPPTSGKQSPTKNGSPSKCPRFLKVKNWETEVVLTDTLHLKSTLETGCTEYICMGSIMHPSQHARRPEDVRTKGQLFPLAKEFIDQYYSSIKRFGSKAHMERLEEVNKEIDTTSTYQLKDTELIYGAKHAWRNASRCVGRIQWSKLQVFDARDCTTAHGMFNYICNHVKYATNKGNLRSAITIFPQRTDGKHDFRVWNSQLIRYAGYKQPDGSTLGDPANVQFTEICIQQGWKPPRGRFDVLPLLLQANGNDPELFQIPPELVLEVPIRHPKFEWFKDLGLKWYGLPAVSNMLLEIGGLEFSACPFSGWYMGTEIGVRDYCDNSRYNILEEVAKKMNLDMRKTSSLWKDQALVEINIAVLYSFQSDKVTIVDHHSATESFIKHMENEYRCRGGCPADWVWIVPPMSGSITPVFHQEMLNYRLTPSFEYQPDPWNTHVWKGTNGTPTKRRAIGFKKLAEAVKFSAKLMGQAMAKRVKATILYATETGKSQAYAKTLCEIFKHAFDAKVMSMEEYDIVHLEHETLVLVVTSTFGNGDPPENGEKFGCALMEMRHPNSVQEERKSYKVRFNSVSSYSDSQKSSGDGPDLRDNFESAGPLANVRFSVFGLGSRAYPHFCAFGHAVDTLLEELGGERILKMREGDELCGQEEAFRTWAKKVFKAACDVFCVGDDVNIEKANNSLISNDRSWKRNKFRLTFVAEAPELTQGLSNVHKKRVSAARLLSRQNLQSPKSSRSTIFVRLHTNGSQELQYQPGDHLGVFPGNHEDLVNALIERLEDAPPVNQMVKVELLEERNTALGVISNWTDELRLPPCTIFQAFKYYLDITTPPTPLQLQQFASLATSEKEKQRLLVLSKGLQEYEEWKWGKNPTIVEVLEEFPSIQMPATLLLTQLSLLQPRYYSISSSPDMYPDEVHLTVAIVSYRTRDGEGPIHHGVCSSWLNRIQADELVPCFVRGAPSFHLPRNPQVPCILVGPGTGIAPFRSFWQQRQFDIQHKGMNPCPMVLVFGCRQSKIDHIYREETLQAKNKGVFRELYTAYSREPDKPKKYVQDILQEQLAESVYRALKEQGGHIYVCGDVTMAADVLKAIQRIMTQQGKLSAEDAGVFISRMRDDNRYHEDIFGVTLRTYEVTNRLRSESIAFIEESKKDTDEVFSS
# ASSAY OVERVIEW: biochemical
# TEST SETTINGS: Table 2; ncNOS; 1 μM L-Arg, pH 7.5, room temperature, 30 minutes; read-out: ncNOS (IC50)
Where a name gives a salt, the structure may show the parent alone.

{"COMPOUND": "CCc1cccc(N)n1", "ASSAY TARGET": "ncNOS (Homo sapiens, UniProt P29475)", "RESULT VALUE": "< 1 µM"}
{"COMPOUND": "Nc1ccnc(N)c1 [Example 38, 2,4-Diaminopyridine dihydrochloride]", "ASSAY TARGET": "ncNOS (Homo sapiens, UniProt P29475)", "RESULT VALUE": "< 50 µM"}
{"COMPOUND": "Cc1ccnc(N)c1N(C)C [Example 27, trihydrochloride]", "ASSAY TARGET": "ncNOS (Homo sapiens, UniProt P29475)", "RESULT VALUE": "< 50 µM"}
{"COMPOUND": "Cc1cc(N)ncc1Br", "ASSAY TARGET": "ncNOS (Homo sapiens, UniProt P29475)", "RESULT VALUE": "< 10 µM"}

// for each compound in input: emit IC50
1. Cc1cc(N)nc(CC[C@@H](C)N)c1
2. Cc1cnc(N)c(C)c1
3. Cc1ccnc(N)c1NC(=O)NCc1ccccc1
4. CSCc1ccnc(N)c1
5. Cc1cc(N)nc(CCCCN)c1
6. Cc1cc(N)nc(CCC(N)C(=O)O)c1 (centres unmarked) [Example 59, dihydrochloride]
7. Cc1cc(N)ncc1C(=O)O
8. Nc1ncccc1OCC[C@H](N)C(=O)O [Example 48, dihydrochloride]

< 1 µM
< 10 µM
> 50 µM
> 50 µM
< 1 µM
< 1 µM
> 50 µM
< 50 µM

// for each compound in input: emit IC50
1. CCc1cc(C)cc(N)n1
2. Cc1cc(N)nc(CCO)c1

1. < 1 µM
2. < 1 µM

---

Provide the recorded IC50 for the entries that follow.
# ASSAY TARGET: ecNOS (Homo sapiens, UniProt P29474)
# ASSAY OVERVIEW: NOS activity: L-[3H]citrulline formation from L-[3H]arginine, ecNOS
# Type: biochemical
# TEST SETTINGS: Table 2; ecNOS; 1 μM L-Arg, pH 7.5, room temperature, 30 minutes; read-out: ecNOS (IC50)

// for each molecule in input: emit IC50
1. CCc1cc(C)cc(N)n1 [Example 54, 2-Amino-6-ethyl-4-methylpyridine]
2. CCc1ccc(N)nc1 [Example 60, 2-Amino-5-ethylpyridine]
3. Cc1cc(N)nc(CCN)c1 [Example 67]
4. CC(=O)Nc1cnc(N)cc1C [Example 31, 5-Acetylamino-2-amino-4-picoline]
5. Cc1cc(N)nc(CCCN)c1 [Example 66]

< 1 µM
< 50 µM
< 50 µM
< 50 µM
< 10 µM

---

# ASSAY TARGET: UniProt:P35228
# ASSAY OVERVIEW: NOS activity: L-[3H]citrulline formation from L-[3H]arginine, iNOS
# Format: biochemical
# TEST SETTINGS: Table 1; iNOS; 1 μM L-Arg, pH 7.5, room temperature, 30 minutes; read-out: iNOS (IC50)
Friendly reminder: IC50 below 1000 nM is Satisfied, at or above is Not satisfied.

I'd appreciate it if you could check whether Cc1ccc(N)nc1 has IC50 smaller than 1000 nM.
Not satisfied

I'd appreciate it if you could check whether CC(C)(C)c1ccnc(N)c1 has IC50 smaller than 1000 nM.
Not satisfied

---

# ASSAY TARGET: UniProt:P35228
# ASSAY OVERVIEW: NOS activity: L-[3H]citrulline formation from L-[3H]arginine, iNOS
# Format: biochemical
# TEST SETTINGS: Table 2; iNOS; 1 μM L-Arg, pH 7.5, room temperature, 30 minutes; read-out: iNOS (IC50)
pIC50: −log10 of the molar value.
Provide the recorded pIC50 for the entries that follow.

For orientation, consider the following solved cases.
{"SMILES RECORD": "COC(=O)c1cc(Cl)cc(N)n1", "pIC50": "> 4.30"}
{"SMILES RECORD": "Cc1cc(N)nc(CCc2ccccc2)c1", "pIC50": "> 5.00"}
{"SMILES RECORD": "CC(=O)NCCCCc1cc(C)cc(N)n1", "pIC50": "> 5.00"}
{"SMILES RECORD": "CSCc1ccnc(N)c1", "pIC50": "> 4.30"}

Now for another entry.
Specify reported pIC50 for the compound shown: Cc1cc(N)ncc1Br
> 5.00
